procedure details: ATG_CRE_CIS: Attagene CIS-FACTORIAL HepG2 Assay for human cAMP Responsive Element (CRE) binding protein 3 (AID 2282926)
test context: HepG2 CRE cis-reporter, Attagene multiplexed mRNA; actives raise or lower the signal
Calls of active or inactive are those of the source. Rule for the calls: active = hit-call score of the fitted dose curve at least 0.9, where 1 is the maximum; inactive = score below 0.9.
Your response should consist of one outcome taken from true (1) (active), false (0) (inactive)

# compound, category label
data = [
    ("CC(C)(COC(=O)c1ccccc1)COC(=O)c1ccccc1", "false (0)"),
    ("COc1cc(C=O)ccc1OC(=O)C(C)C", "false (0)"),
    ("O=C(OCc1ccccc1)C(=O)OCc1ccccc1", "false (0)"),
    ("CC(C)(C)c1n[nH]c(=S)n(N)c1=O", "false (0)"),
    ("CC(=O)Nc1ccc(CC(=O)O)cc1", "false (0)"),
    ("C#C[C@]1(O)CC[C@H]2[C@@H]3CCC4=Cc5oncc5C[C@]4(C)[C@H]3CC[C@@]21C", "true (1)"),
]

Could you kindly confirm the outcome this assay logged for O=CCCc1ccccc1 ? false (0)

Could you do the same for CCCCCCOC(=O)CC , please? false (0)

Could you do the same for CCCCCCCCCCCCSC , please? false (0)

Could you do the same for COc1ccc(NC(=O)CC(C)=O)cc1 , please? false (0)

Could you do the same for Cc1ccc(C=O)cc1 , please? false (0)

Could you do the same for CCCC(C)C=O (configuration not stated) , please? false (0)

Could you do the same for CCCCCCCCCOC(C)=O , please? false (0)

Could you do the same for CC(C)C[C@H]1C(=O)N2CCC[C@H]2[C@]2(O)O[C@](NC(=O)[C@@H]3C=C4c5cccc6[nH]c(Br)c(c56)C[C@H]4N(C)C3)(C(C)C)C(=O)N12 , please? false (0)

Could you do the same for O=C(O)C[C@H](O)C[C@H](O)/C=C/c1c(C2CC2)nc2ccccc2c1-c1ccc(F)cc1 , please? false (0)

Could you do the same for COc1c(Cl)c(Cl)c(Cl)c(Cl)c1Cl , please? false (0)

Could you do the same for C=C(C)C(=O)NCCCN(C)C , please? false (0)

Could you do the same for CCCCCC(CO)CCC (configuration not stated) , please? false (0)

Could you do the same for CC(CCO)CCc1ccccc1 (configuration not stated) , please? false (0)

Could you do the same for CC(C)(C)c1cc(CCC(=O)NN)cc(C(C)(C)C)c1O , please? false (0)

Could you do the same for BrC1CCC(Br)C(Br)CCC(Br)C(Br)CCC1Br (configuration not stated) , please? false (0)

Could you do the same for Sc1nc(S)nc(S)n1 , please? false (0)

Could you do the same for COC(=O)C1=C(C)NC(C)=C(C(=O)OCCN(C)Cc2ccccc2)C1c1cccc([N+](=O)[O-])c1 (configuration not stated) , please? false (0)

Could you do the same for CCc1ccc(C=O)cc1 , please? false (0)

Could you do the same for CN(C)CCCN , please? false (0)

Could you do the same for CCN(CC)c1ccc(C(=C2C=CC(=[N+](CC)CC)C=C2)c2ccc(S(=O)(=O)O)cc2S(=O)(=O)[O-])cc1 , please? false (0)

###

procedure details: ATG_GLI_CIS: Attagene CIS-FACTORIAL HepG2 Assay for human Zinc Finger Protein GLI1 (AID 2282945)
test context: HepG2, Attagene cis-factorial reporter mRNA, GLI element; actives raise or lower the signal
The source made the active and inactive calls. The calls were made as follows: active = hit-call score of the fitted dose curve at least 0.9, where 1 is the maximum; inactive = score below 0.9.
Your response should consist of one outcome taken from 1 (yes) for active, 0 (no) for inactive

Field: example entries. Status: answers known.
# molecule, category label
measured = [
    ("CN(C)C(=N)N=C(N)N", "0 (no)"),
    ("COc1cc(C=O)ccc1OC(=O)C(C)C", "0 (no)"),
    ("CC(C)=CCO", "0 (no)"),
    ("C=C(C)C(=O)OCc1ccccc1", "0 (no)"),
    ("CCN(CC)CCOC(=O)c1ccc(N)cc1", "0 (no)"),
]

Could you kindly confirm the outcome this assay logged for COC(=O)C1=C(C)NC(C)=C(C(=O)OCCN(C)Cc2ccccc2)C1c1cccc([N+](=O)[O-])c1 (configuration not stated) ? 1 (yes)

Could you do the same for O=[N+]([O-])c1ccc(Nc2ccc(Nc3ccccc3)c(S(=O)(=O)O)c2)c([N+](=O)[O-])c1 , please? 0 (no)

Could you do the same for O=C1C(c2[nH]c3ccc(S(=O)(=O)O)cc3c2O)=Nc2ccc(S(=O)(=O)O)cc21 , please? 0 (no)

###

target under test: Cellular tumor antigen p53 (Homo sapiens) (UniProt P04637)
Sequence (P04637 whole entry, looked up): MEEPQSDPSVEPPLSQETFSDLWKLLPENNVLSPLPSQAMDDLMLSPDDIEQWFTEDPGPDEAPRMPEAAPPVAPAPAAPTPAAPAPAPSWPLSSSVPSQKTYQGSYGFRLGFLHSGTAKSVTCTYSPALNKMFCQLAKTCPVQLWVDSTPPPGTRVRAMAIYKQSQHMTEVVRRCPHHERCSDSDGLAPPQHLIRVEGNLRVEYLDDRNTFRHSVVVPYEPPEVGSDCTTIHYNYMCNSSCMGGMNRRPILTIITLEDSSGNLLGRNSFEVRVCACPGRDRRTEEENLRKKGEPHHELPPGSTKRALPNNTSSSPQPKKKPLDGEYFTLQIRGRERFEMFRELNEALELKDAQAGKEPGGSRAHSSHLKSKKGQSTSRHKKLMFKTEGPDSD
procedure details: TOX21_p53_BLA_p4_ratio: Tox21 HCT-116 p53 Agonism Beta-lactamase Assay, Ratio, Phase 4 (AID 2283601)
Results filed as inconclusive are left out. Active and inactive are the calls of the source. How the source made its calls: active means hit-call score of the fitted dose curve at least 0.9, where 1 is the maximum; inconclusive means response in the unintended direction; inactive means score below 0.9.
Your response should consist of one outcome taken from active, inactive

Field: example entries. Status: answers known.
# molecule, category label
rows = [
    ("Cc1ccccc1C=O", "inactive"),
    ("CC1(C)CCC(C)(C)c2cc(C(=O)Nc3ccc(C(=O)O)cc3)ccc21", "active"),
    ("O=C(O)CN(CCN(CC(=O)O)CC(=O)O)CCN(CC(=O)O)CC(=O)O", "inactive"),
    ("O=C(O)CCSCCC(=O)O", "inactive"),
    ("CC(C#N)(CCC(=O)O)N=NC(C)(C#N)CCC(=O)O (stereo not given)", "inactive"),
]

Could you kindly confirm the outcome this assay logged for CN(C)C(=N)N=C(N)N ? inactive

Could you do the same for COC(=O)Cc1cccc2ccccc12 , please? inactive

Could you do the same for CO[Si](C)(OC)c1ccccc1 , please? inactive

Could you do the same for CCC(C(=O)NC(N)=O)c1ccccc1 (stereo not given) , please? inactive

Could you do the same for CCCCCCCCCCN , please? inactive

Could you do the same for Cc1ccc(C=O)s1 , please? inactive

Could you do the same for COc1cccc(OC)c1 , please? inactive

Could you do the same for Nc1ccc(S(N)(=O)=O)cc1 , please? inactive

Could you do the same for Fc1c(F)c(F)c(Br)c(F)c1F , please? inactive

Could you do the same for O=C(Oc1ccccc1)c1ccc(O)cc1 , please? inactive

###

procedure details: BSK_BT_Bcell_Proliferation: Viability Assessment in the BioMAP Diversity Plus: BT Assay for B cell Proliferation (AID 2284227)
test context: primary human B cells with PBMC
The source made the active and inactive calls. How the source made its calls: active means hit-call score of the fitted dose curve at least 0.9, where 1 is the maximum; inactive means score below 0.9.
Your response should consist of one outcome taken from active, inactive

Field: example entries. Status: answers known.
# compound, category label
records = [
    ("N#Cc1ccc(CC(=NNC(=O)Nc2ccc(OC(F)(F)F)cc2)c2cccc(C(F)(F)F)c2)cc1", "inactive"),
    ("O=C(O)c1cn(-c2ccc(F)cc2)c2cc(N3CCNCC3)c(F)cc2c1=O", "inactive"),
    ("CN(CCOc1ccc(CC2SC(=O)NC2=O)cc1)c1ccccn1 (stereo unspecified)", "inactive"),
    ("O=C=NC1CCC(CC2CCC(N=C=O)CC2)CC1 (stereo unspecified)", "active"),
    ("CCCCC(CC)COC(=O)/C=C\\C(=O)OCC(CC)CCCC (stereo unspecified)", "active"),
]

// next entry
Could you kindly confirm the outcome this assay logged for CC1COc2ccccc2N1C(=O)C(Cl)Cl (stereo unspecified) ? active

###

Read-out: CD40, CD40 (gene 958)
procedure details: BSK_LPS_CD40: BioMAP Diversity Plus: LPS Assay for CD40 Biomarker Activity (AID 2283076)
test context: primary human HUVEC with PBMC; actives raise or lower the signal
Calls of active or inactive are those of the source. How the source made its calls: active means hit-call score of the fitted dose curve at least 0.9, where 1 is the maximum; inactive means score below 0.9.
Your response should consist of one outcome taken from active, inactive

# compound, category label
data = [
    ("c1ccc2sc(SN(C3CCCCC3)C3CCCCC3)nc2c1", "inactive"),
    ("BrC1CCC(Br)C(Br)CCC(Br)C(Br)CCC1Br (stereo unspecified)", "active"),
]

Could you kindly confirm the outcome this assay logged for OC1OC[C@@H](O)[C@H](O)[C@H]1O (stereo partly specified) ? inactive

Could you do the same for CC(C)c1ccc(C(C)C)cc1 , please? inactive

Could you do the same for Cc1ccc(O)c(C(C)(C)C)c1 , please? active

Could you do the same for OC[C@H]1O[C@H](O[C@]2(CCl)O[C@H](CCl)[C@@H](O)[C@@H]2O)[C@H](O)[C@@H](O)[C@H]1Cl , please? inactive

Could you do the same for CC1CCC(C(C)CS)CC1S (stereo unspecified) , please? active

Could you do the same for C=C[Si](OCC)(OCC)OCC , please? inactive

###

procedure details: ATG_NF_kB_CIS: Attagene CIS-FACTORIAL HepG2 Assay for human Nuclear Factor Kappa B (NF-kB) (AID 2282991)
test context: HepG2 Attagene cis-factorial NF-kB reporter mRNA; actives raise or lower the signal
The source made the active and inactive calls. Rule for the calls: active = hit-call score of the fitted dose curve at least 0.9, where 1 is the maximum; inactive = score below 0.9.
Your response should consist of one outcome taken from active, inactive

Field: example entries. Status: answers known.
# molecule, category label
rows = [
    ("CCC(C)CCCC(C)(C)O (stereo not given)", "inactive"),
    ("O=C(O)c1ccc([N+](=O)[O-])cc1", "inactive"),
    ("NC(=O)Nc1ccc(Cl)cc1", "inactive"),
    ("CC(C)CCCCCCCOC(=O)c1ccc(C(=O)OCCCCCCCC(C)C)c(C(=O)OCCCCCCCC(C)C)c1", "inactive"),
]

Could you kindly confirm the outcome this assay logged for CCCCCCCCCCCCOCCO ? inactive

Could you do the same for O=S(=O)(O)c1ccc(O)c2ncccc12 , please? inactive

Could you do the same for CC(CCO)CCc1ccccc1 (stereo not given) , please? inactive

Could you do the same for CCCCCCCCCCCCCCCC(=O)O , please? inactive

Could you do the same for CC1CCC2CC1C2(C)C (stereo not given) , please? inactive

Could you do the same for Cc1ccc2sc3cccc(C)c3c2c1 , please? inactive

Could you do the same for CNC[C@H](O)c1cccc(O)c1 , please? inactive

Could you do the same for CC(C)(C)NC(N)=O , please? inactive

Could you do the same for OCCOc1cccc(OCCO)c1 , please? inactive

Could you do the same for CCCCCC=CCC(=O)OC , please? inactive

Could you do the same for CCCCCCCCCCCCCCCC(=O)OC[C@H](O)[C@H]1OC(=O)C(O)=C1O , please? inactive

Could you do the same for CNCCCC12CCC(c3ccccc31)c1ccccc12 , please? inactive

Could you do the same for CC(O)C(C)O (stereo not given) , please? inactive
